Assay Name: in-vivo pharmacokinetic study on SD rats, intravenous and intranasal administration
Recorded Conditions: rat, plasma, IV@1 mg/kg, read-out: Half-life period t1/2 (converted)
Method: Species: SD rats, male, SPF level. 2.1 An appropriate amount of drug was accurately weighed and added with 50 mM succinate buffer (diluted with D5W, pH=5-6), and mixed evenly and dissolved fully in an ultrasonic and vortexed mode to obtain a 0.2 mg/mL drug solution for intravenous (IV) administration. […] A concentration of a specified compound in plasma was determined by an LC-MS/MS method, and main pharmacokinetic parameters were calculated by a Winnolin 8.3 non-compartmental model.
Recorded Metric: half-life
Put down the number, then write its unit next to it.

I am curious: what half-life value has been reported for Cc1cc(C[C@@H](NC(=O)N2CCC(c3cc4c([nH]c3=O)SCCC4)CC2)C(=O)N2CCN(C3CCN(C)CC3)CC2)cc2cn[nH]c12 ?
2.52 h

====

Test Target: CGRP receptor complex (Homo sapiens, UniProt O60894+Q16602)
Construct: host or cells: SK-N-MC
Sequence (Q16602 23-461): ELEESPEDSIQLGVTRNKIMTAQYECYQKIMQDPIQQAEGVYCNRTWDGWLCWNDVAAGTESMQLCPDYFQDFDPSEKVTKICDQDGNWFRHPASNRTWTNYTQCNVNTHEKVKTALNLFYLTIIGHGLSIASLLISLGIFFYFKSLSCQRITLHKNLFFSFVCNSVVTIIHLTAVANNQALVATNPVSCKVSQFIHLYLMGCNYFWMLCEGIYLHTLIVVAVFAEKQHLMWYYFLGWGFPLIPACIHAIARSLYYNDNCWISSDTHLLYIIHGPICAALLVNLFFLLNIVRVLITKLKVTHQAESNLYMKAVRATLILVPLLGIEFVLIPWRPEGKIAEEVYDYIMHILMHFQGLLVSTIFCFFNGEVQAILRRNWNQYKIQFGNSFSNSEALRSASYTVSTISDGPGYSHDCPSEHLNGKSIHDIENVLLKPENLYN
Sequence (O60894 27-148): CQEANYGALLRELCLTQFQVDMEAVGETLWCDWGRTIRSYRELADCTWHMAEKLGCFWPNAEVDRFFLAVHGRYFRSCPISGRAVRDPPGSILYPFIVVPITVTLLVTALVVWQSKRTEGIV
Assay Name: determination of cell functional antagonism - cAMP determination
Format: cell-based
Recorded Conditions: inhibition of CGRP-stimulated cAMP formation in SK-N-MC cells; read-out: IC50
// reported IC50 per item
Lab book: enter the figure in nM, no units written.

[[record]]
compound = "Cc1cc(CC(CC(=O)N2CCC(c3cc4c([nH]c3=O)SCC4)CC2)C(=O)N2CCN(C3CCN(C)CC3)CC2)cc2cn[nH]c12 (stereo not shown) [Example 31]"
numeric_readout = 2.05

[[record]]
compound = "Cc1cc(C[C@@H](NC(=O)N2CCC(c3cc4c([nH]c3=O)SCC4(C)C)CC2)C(=O)N2CCN(C3CCN(C)CC3)CC2)cc2cn[nH]c12 [Example 2]"
numeric_readout = 0.65

[[record]]
compound = "Cc1cc(C[C@@H](NC(=O)N2CCC(c3cc4c([nH]c3=O)SCC3(CC3)C4)CC2)C(=O)N2CCN(C3CCN(C)CC3)CC2)cc2cn[nH]c12 [Example 46]"
numeric_readout = 0.15


Now examine the next entry.
Look up IC50 with CGRP receptor complex (Homo sapiens, UniProt O60894+Q16602) for this compound: Cc1cc(C[C@@H](NC(=O)N2CCC(c3cc4c([nH]c3=O)SCCC4)CC2)C(=O)N2CCC(N3CCCCC3)CC2)cc2cn[nH]c12 [Example 26]
0.1

====

Assay Name: in-vivo pharmacokinetic study on SD rats, intravenous and intranasal administration
Recorded Conditions: male, rat, plasma, other: intranasal, IN@2 mg/kg, read-out: Bioavailability F%
Recorded Metric: bioavailability (%)
Unit % implied. Number only.

[[record]]
compound = "Cc1cc(C[C@@H](NC(=O)N2CCC(c3cc4ccccc4[nH]c3=O)CC2)C(=O)N2CCN(C3CCN(C)CC3)CC2)cc2cn[nH]c12 [Zavegepant, zavegepant, reference compound]"
recorded_metric = "bioavailability"
readout_unit = "%"
numeric_readout = 5.31


Quick one: bioavailability of Cc1cc(C[C@@H](NC(=O)N2CCC(c3cc4c([nH]c3=O)SCC4)CC2)C(=O)N2CCN(C3CCN(C)CC3)CC2)cc2cn[nH]c12 ?
11

====

Test Target: CGRP receptor complex (Homo sapiens, UniProt O60894+Q16602)
Construct: host or cells: SK-N-MC
Assay Name: determination of cell functional antagonism - cAMP determination
Format: cell-based
Recorded Metric: IC50
Entry format: amount then unit.

May I ask what IC50 has been recorded for Cc1cc(C[C@@H](NC(=O)N2CCC(c3cc4c([nH]c3=O)SCC43CC3)CC2)C(=O)N2CCN(C3CCN(C)CC3)CC2)cc2cn[nH]c12 ?
0.37 nM

Same question, Cc1cc(C[C@@H](NC(=S)N2CCC(c3cc4c([nH]c3=O)SCC4)CC2)C(=O)N2CCN(C3CCN(C)CC3)CC2)cc2cn[nH]c12 this time
0.71 nM

// same read-out, input: Cc1cc(CC(OC(=O)N2CCC(c3cc4c([nH]c3=O)SCCC4)CC2)C(=O)N2CCN(C3CCN(C)CC3)CC2)cc2cn[nH]c12 (centres unmarked)
0.38 nM

Request: Cc1cc(C[C@@H](NC(=O)N2CCC(c3cc4c([nH]c3=O)SCC3CC43)CC2)C(=O)N2CCN(C3CCN(C)CC3)CC2)cc2cn[nH]c12 (some centres unmarked)
0.24 nM

Then this compound: Cc1cc(C[C@@H](NC(=O)N2CCC(c3cc4c([nH]c3=O)[S+]([O-])CCC4)CC2)C(=O)N2CCN(C3CCN(C)CC3)CC2)cc2cn[nH]c12 (some centres unmarked)
0.29 nM

====

Test Target: CGRP receptor complex (Homo sapiens, UniProt O60894+Q16602)
Construct: host or cells: SK-N-MC
Assay Name: determination of cell functional antagonism - cAMP determination
Format: cell-based
Recorded Conditions: inhibition of CGRP-stimulated cAMP formation in SK-N-MC cells
Recorded Metric: pIC50
To interpret pIC50, take it as minus log10 of a concentration measured in moles per litre.

[[record]]
compound_structure = "Cc1cc(C[C@@H](NC(=O)N2CCN(c3cc4c([nH]c3=O)SCCC4)CC2)C(=O)N2CCN(C3CCN(C)CC3)CC2)cc2cn[nH]c12"
test_target = "CGRP receptor complex (Homo sapiens, UniProt O60894+Q16602)"
numeric_readout = 9.02


What value of pIC50 has been recorded for this entry: Cc1cc(C[C@@H](NC(=O)N2CCC(c3cc4c([nH]c3=O)CSCC4)CC2)C(=O)N2CCN(C3CCN(C)CC3)CC2)cc2cn[nH]c12
8.84

====

Assay Name: in-vivo pharmacokinetic study on SD rats, intravenous and intranasal administration
Recorded Conditions: male, rat, plasma, other: intranasal, IN@2 mg/kg, read-out: Half-life period t1/2 (converted)
Recorded Metric: half-life (h)
Kindly provide the numeric value in h only, without the unit symbol.

[[record]]
molecule = "Cc1cc(C[C@@H](NC(=O)N2CCC(c3cc4ccccc4[nH]c3=O)CC2)C(=O)N2CCN(C3CCN(C)CC3)CC2)cc2cn[nH]c12 [Zavegepant, zavegepant, reference compound]"
recorded_metric = "half-life"
readout_unit = "h"
numeric_readout = 1.08


What does the data say about its half-life? Entry: Cc1cc(C[C@@H](NC(=O)N2CCC(c3cc4c([nH]c3=O)SCC4)CC2)C(=O)N2CCN(C3CCN(C)CC3)CC2)cc2cn[nH]c12
3.41

====

Assay Name: stability test in liver microsomes (human)
Assay type: in vitro ADME
Recorded Conditions: 1.0 µM
Recorded Metric: half-life at 1 µM

[[record]]
compound = "Cc1cc(C[C@@H](NC(=O)N2CCC(c3cc4c([nH]c3=O)SCC4)CC2)C(=O)N2CCN(C3CCN(C)CC3)CC2)cc2cn[nH]c12"
result = "> 2 h"

[[record]]
compound = "Cc1cc(C[C@@H](NC(=O)N2CCC(c3cc4c([nH]c3=O)SCCC4)CC2)C(=O)N2CCN(C3CCN(C)CC3)CC2)cc2cn[nH]c12"
result = "> 2 h"


What half-life at 1 µM value was documented for this compound, Cc1cc(C[C@@H](NC(=O)N2CCC(c3cc4ccccc4[nH]c3=O)CC2)C(=O)N2CCN(C3CCN(C)CC3)CC2)cc2cn[nH]c12 [Zavegepant, zavegepant, reference compound] ?
1.11 h

====

Measured pIC50 values are reported for all entries that follow.
Test Target: CGRP receptor complex (Homo sapiens, UniProt O60894+Q16602)
Construct: host or cells: SK-N-MC
Assay Name: determination of cell functional antagonism - cAMP determination
Assay type: cell-based
Just the number, please; pIC50 means minus log10 of the concentration in mol/L.

// worked examples, pIC50 included
[[record]]
molecule = "Cc1cc(C[C@@H](NC(=O)N2CCC(c3cc4c([nH]c3=O)CCC4)CC2)C(=O)N2CCN(C3CCN(C)CC3)CC2)cc2cn[nH]c12 [Example 51]"
numeric_readout = 8.71

[[record]]
molecule = "Cc1cc(C[C@@H](NC(=O)N2CCC(c3cc4c([nH]c3=O)CCC4(C)C)CC2)C(=O)N2CCN(C3CCN(C)CC3)CC2)cc2cn[nH]c12 [Example 7]"
numeric_readout = 8.22

[[record]]
molecule = "Cc1cc(C[C@@H](NC(=O)N2CCC(c3cc4c([nH]c3=O)SCC4)CC2)C(=O)N2CCC(C)(N3CCCCC3)CC2)cc2cn[nH]c12 [Example 22]"
numeric_readout = 9.09

[[record]]
molecule = "Cc1cc(C[C@@H](NC(=O)N2CCC(c3cc4c([nH]c3=O)SCC4)CC2)C(=O)N2CC3CC2CC3N2CCCCC2)cc2cn[nH]c12 (stereo partly drawn) [Example 36]"
numeric_readout = 8.34

[[record]]
molecule = "Cc1cc(C[C@@H](NC(=O)N2CCC(c3cc4c([nH]c3=O)[S+]([O-])CC4)CC2)C(=O)N2CCN(C3CCN(C)CC3)CC2)cc2cn[nH]c12 (stereo partly drawn) [Example 35]"
numeric_readout = 9.16


// returns reported pIC50 for input Cc1cc(C[C@@H](NC(=S)N2CCC(c3cc4c([nH]c3=O)SCCC4)CC2)C(=O)N2CCN(C3CCN(C)CC3)CC2)cc2cn[nH]c12 [Example 23]
8.95

meta.source: patent EP4703362A1
